Entry source: PubChem BioAssay (NCI)

The following compounds are listed with their measured growth values.
System: KM12 colon
Experiment: NCI-60 one-dose screen, 48 h (100 = growth as untreated, 0 = no growth, -100 = all killed)
Details: 10 µM unless noted
Compounds without any hit were thinned out: in the full panel of roughly 83,000, 20% have a hit.
Give the quantity in %, number only.

Example cases with answers are listed next.
COMPOUND	SYSTEM UNDER TEST	growth, %
Cc1ccc(Cn2cc(COc3ccc4c5ccnc(C)c5n(CCCc5ccccc5)c4c3)nn2)cc1	KM12 colon	97.9
Cn1c2ccccc2c2ssc(=S)c21	KM12 colon	99.7
CC(C)CNCC(O)COc1ccc(C(C)(C)c2ccc(OCC(O)CNCC(C)C)cc2)cc1 (configuration not stated)	KM12 colon	37.1

Problem: Entry under review: O=C(O)c1ccc(-n2cc(/C=N/Nc3ccc(Cl)cc3)c(-c3ccc(F)c(F)c3)n2)cc1 . Reported growth?
Solution: 69.2

Problem: Request: Cc1ccc(N(CC2=NCCN2)c2cccc(O)c2)cc1
Solution: 104

Problem: Another compound to check: NN=C(c1ccc(Cl)cc1)c1ccc(Cl)cc1
Solution: 92.9

====

Let's look at some compounds and their measured growth.
Tested on: UACC-257 melanoma
Assay: NCI-60 one-dose screen, 48 h (100 = growth as untreated, 0 = no growth, -100 = all killed)
Settings: 10 µM unless noted
About 83,000 compounds went through this panel and 20% of them were active in at least one assay; those are over-represented in the sample as a whole. Active and inactive are the calls of the source. The calls were made as follows: active = growth percent below 10; inactive = the rest.

COMPOUND	RECORDED VALUE
Cc1cc2c(cc1C)N(C(=O)CCl)CCN2C(=O)CCl	-67.2% (active)
COc1ccc(-c2cc(-c3nnc(SC/C(=N\O)c4ccccc4)n3-c3ccccc3)c3ccccc3n2)cc1	104% (inactive)
Nc1nc(-c2cc3c(cc2Cl)NC(=O)/C3=C/c2ccc(Cl)cc2)cs1	73.5% (inactive)
CCOc1ccc(-n2c(-c3cc(OC)c(OC)c(OC)c3)nnc2-c2ccc(OC)cc2N)cc1	57.2% (inactive)
OC(COc1ccccc1Cl)CN1CCN(c2ccc(Cl)cc2)CC1 (configuration not stated)	109% (inactive)
CC1(C)Cc2c(Br)c(Br)c(Br)c(OCC(O)CN3CCN(c4ccccn4)CC3)c2O1 (configuration not stated)	105% (inactive)
CC(C)CNCC(O)COc1ccc(C(C)(C)c2ccc(OCC(O)CNCC(C)C)cc2)cc1 (configuration not stated)	-37.4% (active)
O=C1OC(=O)C2C3CC(c4ccccc43)C12 (configuration not stated)	91.8% (inactive)

Problem: Request the reported growth associated with CC(=O)c1ccc2c(c1)C1C=CCC1[C@H](c1cc3c(cc1Br)OCO3)N2 (some centres not stated)
Solution: 75% (inactive)

Problem: Param item: O=C(C[n+]1cccc(Br)c1)c1ccc2c(c1)CCCC2
Solution: 112% (inactive)

Problem: Field entry: COc1cc(-c2nc(N)n(CC(=O)Nc3ccc(/C(C)=N\O)cc3)n2)cc(OC)c1OC
Solution: 63.7% (inactive)

Problem: Can you check Oc1ccc(O)c(-[n+]2ccccc2)c1 next?
Solution: 95.1% (inactive)

Problem: Can you handle O=C(Nc1cccc([N+](=O)[O-])c1)Nc1cccc([N+](=O)[O-])c1 next?
Solution: 68.1% (inactive)

Problem: Also O=C(O)c1cc2ccccc2cc1Nc1ccccc1 , if possible.
Solution: 4.2% (active)

Problem: COc1ccc(-c2nnc(NC(=O)CN3CCN(c4cc5c(cc4F)c(=O)c(C(=O)O)cn5C4CC4)CC3)s2)cc1OC ?
Solution: 98% (inactive)

Problem: Can you check CNC(=O)NN next?
Solution: 100% (inactive)

Problem: Would you mind doing COc1cc(/C=C\c2cc(/C=C\c3ccc(O)c(OC)c3)n(C(=O)CNc3ccccc3OC)n2)ccc1O as well?
Solution: 85.5% (inactive)

Problem: Moving on to the next compound: COc1ccccc1P(c1ccccc1OC)c1ccccc1OC
Solution: 78.1% (inactive)

Problem: What would you report for FC(F)(F)c1cn(CC2CNC2)c2ncnc(Cl)c12 ?
Solution: 85.6% (inactive)

Problem: Another compound to check: CCc1ccc(C2=C/C(=C/c3ccc(Cl)cc3)C(=O)N2CCc2ccc(S(N)(=O)=O)cc2)cc1
Solution: 39.4% (inactive)

Problem: One more compound: O=C(Nc1ccc(-n2ccc3c(NC(=O)c4ccccc4)ncnc32)cc1)c1cccc(C(F)(F)F)c1
Solution: 60.8% (inactive)

Problem: Now the same for CC1(C)N=C(N)N=C(N)N1c1cccc(CCCCc2ccccc2)c1
Solution: -34.8% (active)

====

Tested on: A549/ATCC NSCLC
Assay: NCI-60 one-dose screen, 48 h
Details: 10 µM unless noted
The panel holds about 83,000 compounds, 20% with a hit somewhere; the sample as a whole holds those more often. Activity calls are given as the source filed them. Rule for the calls: active = growth percent below 10; inactive = the rest.
A correct response names exactly one class from active, inactive

Solved cases below.
COMPOUND	ASSIGNED CLASS
Clc1ccc2c(c1)nnn1c3ncccc3c(Br)c21	inactive
COc1cc([C@@H]2c3cc4c(cc3C(OC3O[C@@H]5COC(C)O[C@H]5[C@H](O)[C@H]3O)C3COC(=O)[C@@H]32)OCO4)cc(OC)c1O (stereo not given in full)	inactive
O=C(O)c1ccc(-n2cc(/C=N/Nc3ccc(F)cc3)c(-c3cccc(C(F)(F)F)c3)n2)cc1	inactive

Problem: Would you mind telling me which call this test gave CCC1S/C(=N\N=C(/C)c2cc3ccccc3o2)N(c2ccccc2)C1=O (stereo not given) ?
Solution: inactive

Problem: Input Cc1cc(C)c(O)c(C(=O)CC(Br)C(=O)O)c1 (stereo not given)
Solution: inactive

Problem: What do we get for Cc1nc(N)nc(SCc2ccccc2)c1Br ?
Solution: inactive

Problem: Follow-up entry: C#C[C@H](O)/C=C/CCCCCCC#C[C@H](O)CC[C@@H](O)C#CCCCCCC/C=C/[C@@H](O)C#C
Solution: inactive

Problem: Note, next up: CC(C)CNCC(O)COc1ccc(C(C)(C)c2ccc(OCC(O)CNCC(C)C)cc2)cc1 (stereo not given)
Solution: inactive

Problem: Same thing, different compound: COC(=O)c1oc2c(C(C)=O)c(OCCN3CCCCC3)ccc2c1C
Solution: inactive

Problem: What do you have for O=C(O)c1ccc2nc(-c3ccc(OCCCCCOc4ccc(-c5nc6ccc(C(=O)O)cc6[nH]5)cc4)cc3)[nH]c2c1 ?
Solution: inactive

Problem: Next entry: Cc1c(F)cccc1NC(=O)c1sc2nc3c(cc2c1N)CCCCC3
Solution: inactive

Problem: Next compound: CCCCn1c(-c2cccc(OC)c2)nc2cc(OC)c(OC)cc2c1=O
Solution: inactive

Problem: Now this one: Cc1cc2c(cc1C)N(C(=O)CCl)CCN2C(=O)CCl
Solution: active

====

Known growth of a selection of compounds
Tested on: MOLT-4 leukemia
Experiment: NCI-60 one-dose screen, 48 h (100 = growth as untreated, 0 = no growth, -100 = all killed)
Conditions: 10 µM unless noted
This is part of a sample that, as a whole, favours compounds with a hit. Of some 83,000 tested, about 20% had one in any assay.
Entry rule: numbers only, all in %.

COMPOUND	SYSTEM UNDER TEST	growth, %
O=C(Cn1c2ccccc2c2ccncc21)N/N=C/c1c[nH]c2ccccc12	MOLT-4 leukemia	53.4
CCN(CC)CCNC(=O)c1c(C)[nH]c(/C=C2\C(=O)Nc3cc(NC(=O)NC(=O)c4ccc(OC)cc4F)ccc32)c1C	MOLT-4 leukemia	38.2
COc1ccc(/C(Cl)=N/N=C(\Cl)c2cc(OC)c(OC)c(OC)c2)cc1OC(C)=O	MOLT-4 leukemia	82.4
Nc1nccc2c1ccn2-c1ccc(NC(=O)c2ccc(N3CCOCC3)c(C(F)(F)F)c2)cc1	MOLT-4 leukemia	-3.7

Problem: growth of CCC(CC(C)C)Nc1ccc(NC(CC)CC(C)C)cc1 (centres undefined) on MOLT-4 leukemia?
Solution: 34.5

Problem: Param item: OC[C@@H](O)C(O[C@@H]1O[C@H](CO)[C@H](O)[C@H](O)[C@H]1O)[C@H](O)[C@@H](O)CO (some centres undefined)
Solution: 106

Problem: Now the same for C=C1C(=O)O[C@H]2[C@H]1CC/C(COC(=O)c1cc(OC)c(OC)c(OC)c1)=C\CC[C@@]1(C)O[C@@H]21
Solution: -14.8

Problem: Input C=C1C(=O)O[C@H]2[C@H]1CC/C(COC(=O)c1cccc3ccccc13)=C\CC[C@@]1(C)O[C@@H]21
Solution: -15.1

====

System: HOP-62 NSCLC
Experiment: NCI-60 one-dose screen, 48 h (100 = growth as untreated, 0 = no growth, -100 = all killed)
Settings: 10 µM unless noted
About 83,000 compounds went through this panel and 20% of them were active in at least one assay; those are over-represented in the sample as a whole.
READOUT LABEL: growth (%)
The answer is to be given in %; state only the numeric part.

Problem: I would be grateful if you could share the reported growth for COc1ccc2c(c1)O/C(=C/c1ccc(OCC(=O)Nc3ccc(S(N)(=O)=O)cc3)cc1)C2=O .
Solution: 104
